The origin of these recorded values is patent US6156700A.

# Test system: ZEAMX
# protocol_description: Preemergence herbicidal evaluation
# Format: in vivo
# Set-up: scale not given here
# condition_notes: 0.0620-0.0630 kg/ha
readout_label: herbicidal effect rating

// worked examples, herbicidal effect rating included
Give the value of herbicidal effect rating reported for the following: `O=C1C2=C(CCCC2)C(=O)N1c1ccc2snc(-c3ccccc3)c2c1`
0.0

Give the value of herbicidal effect rating reported for the following: `O=C1C2=C(CCCC2)C(=O)N1c1ccc2sncc2c1`
0.0

Give the value of herbicidal effect rating reported for the following: `Cc1nsc2ccc(N3C(=O)C4=C(CCCC4)C3=O)cc12`
0.0

Give the value of herbicidal effect rating reported for the following: `CN(C)C(=O)c1nsc2ccc(-n3c(=O)cc(C(F)(F)F)n(C)c3=O)cc12`
6.5

Shifting focus to the compound that follows.
Give the value of herbicidal effect rating reported for the following: `Cn1c(C(F)(F)F)cc(=O)n(-c2ccc3snc(-c4ccccc4)c3c2)c1=O`
7.0
